# Test system: SK-MEL-28
# Test name: NCI tumour cell line growth inhibition, 48 h
Calls of active or inactive are those of the source. Rule as the data show it: active = GI50 up to about 1.1 µM and inactive = higher.
Assay endpoint: GI50

{"Compound": "CC(C)CC1[C@@H](OCc2ccccc2)COS(=O)N1Cc1ccccc1 (some centres undefined)", "Val": "51.3 µM (inactive)"}
{"Compound": "CSc1ncnc2c1ncn2C1OC(CO)C(O)OC1O (centres undefined)", "Val": "13.7 µM (inactive)"}
{"Compound": "CC(C)(C)/C(O)=C\\c1nc2cc(F)c(F)cc2[nH]c1=O", "Val": "> 100 µM (inactive)"}
{"Compound": "CCOc1ccc2nc(NC(=O)C(=O)C(C#N)CC(C)(C)C=O)sc2c1 (centres undefined)", "Val": "> 100 µM (inactive)"}
{"Compound": "O=C1CCC(=O)C12CCc1cccc(O)c12", "Val": "> 100 µM (inactive)"}
{"Compound": "CC(=O)O[C@H]1C[C@H]2[C@@H]([C@H](OC(C)=O)C[C@@H]3CC4(CC[C@@]32C)OOC2(CCCCC2)OO4)[C@@H]2CC[C@H]([C@H](C)CCC(N)=O)[C@@]12C", "Val": "8.93 µM (inactive)"}
{"Compound": "NC(=O)C(=Cc1ccc(CP(=O)(O)O)cc1)C(N)=O", "Val": "> 100 µM (inactive)"}
{"Compound": "O=C1C2C(c3ccccc3)NC(c3ccccc3)C1C(c1ccccc1)NC2c1ccccc1 (centres undefined)", "Val": "> 100 µM (inactive)"}
{"Compound": "O=C(C#Cc1ccccc1)Nc1ccccc1CC(c1c[nH]c2ccccc12)c1c[nH]c2ccccc12", "Val": "15.5 µM (inactive)"}

---

# Tested on: EKVX
# Test name: NCI tumour cell line growth inhibition, 48 h
Active and inactive are the calls of the source. Rule as the data show it: active = GI50 up to about 1.1 µM and inactive = higher. Square brackets hold non-standard residues; d marks the D form. Peptide text beside a SMILES is read from it. * marks the point of attachment. NMeV = CN[C@H](C(=O)O)C(C)C; X28 = COc1ccc(CN*)c(OC)c1; Octanoyl = CCCCCCCC(=O)*; dNMeA = CN[C@H](C)C(=O)O
Possible outcomes: active, inactive

{"Compound": "O=C(CCc1ccc(O)c(O)c1)c1ccc(O)c(O)c1O", "Class": "inactive"}
{"Compound": "O=c1c2c3c(sc2nc2n1sc1nc4sc5c(c4c(=O)n12)CCCC5)CCCC3", "Class": "inactive"}
{"Compound": "CN1C(=O)c2cccc3c([N+](=O)[O-])ccc(c23)C1=O", "Class": "inactive"}
{"Compound": "Oc1cc(Br)cc2cc(Cl)cnc12", "Class": "inactive"}
{"Compound": "Cc1cc2c(cc1C)OC(=O)CC2", "Class": "inactive"}
{"Compound": "Cc1ccc([N+](=O)[O-])c2c(NCCNC(=O)Cn3ccnc3[N+](=O)[O-])ccnc12", "Class": "inactive"}
{"Compound": "O=C(c1cc(Cl)ccc1Cl)N1CCN(c2ccc(Cl)c(Cl)c2)CC1", "Class": "inactive"}
{"Compound": "NC(CCc1ncc(-c2ccccc2)s1)C(=O)O (stereo not given)", "Class": "inactive"}
{"Compound": "CC(C)OC(=O)NNc1cc(Cl)ccc1Cl", "Class": "inactive"}
{"Compound": "O=C(/C=C/c1ccc(O)c(-c2cc(C(=O)/C=C/c3ccc(O)cc3)c(O)cc2O)c1)c1ccc(O)cc1O [RHUSCHALCONE VI]", "Class": "inactive"}
{"Compound": "CCOC(=O)N1CCN(c2ccc3c(C)cc(C)nc3n2)CC1", "Class": "inactive"}
{"Compound": "Cc1cc(=O)oc2cc(OCC(O)COC(C)C)ccc12 (stereo not given)", "Class": "inactive"}
{"Compound": "O=C1OC(C2Cc3ccc4c(c3C2=O)CCCC4)c2ccccc21 (stereo not given)", "Class": "inactive"}
{"Compound": "CC1=C(N(C)C)C(=O)c2nc3n(c2C1=O)CCC3OC(N)=O (stereo not given)", "Class": "inactive"}
{"Compound": "Cc1c(C(=O)c2ccccc2C(=O)O)c2ccccc2n1C", "Class": "inactive"}
{"Compound": "CN(C)CCNC(=O)c1cc(NC(=O)c2cc(NC(=O)CC/C=C3/[C@@H]4CC[C@H]3N=N4)cn2C)cn1C", "Class": "inactive"}
{"Compound": "CCC1NCC(=O)c2c1[nH]c1ccccc21 (stereo not given)", "Class": "inactive"}
{"Compound": "CCCCCCCCCCCCCCCC(=O)OCC(O)C1OC(=O)C(O)=C1O (stereo not given)", "Class": "inactive"}
{"Compound": "COC(=O)/C(C#N)=C(\\N)C(Cl)(Cl)Cl", "Class": "inactive"}
{"Compound": "CC(C)(C)OC(=O)N1N=NC2C3CC(=O)C(O3)C21 (stereo not given)", "Class": "inactive"}
{"Compound": "O=[N+]([O-])c1cccc2nc3ccccc3c(NCCc3cccc[n+]3[O-])c12", "Class": "active"}
{"Compound": "Nc1ncnc2c1ncn2C1OC(CSC(F)F)C(O)C1O (stereo not given)", "Class": "inactive"}
{"Compound": "CCN(CC)c1ccc2cc(-c3nnc(-c4ccccc4O)o3)c(=O)oc2c1", "Class": "inactive"}
{"Compound": "C[N+]1(C)C/C(=C\\c2ccc(O)cc2)C(=O)/C(=C/c2ccc(O)cc2)C1", "Class": "inactive"}
{"Compound": "CN(C)CC/C(=N\\Nc1c(F)c(F)c(F)c(F)c1F)c1ccccc1", "Class": "inactive"}
{"Compound": "CCOc1ccc2nc(NC(=O)C(=O)C(C#N)CC(C)(C)C=O)sc2c1 (stereo not given)", "Class": "inactive"}
{"Compound": "CC(=O)Nc1ccc(C(=O)NN2C(=O)C(Cl)C2c2ccc([N+](=O)[O-])cc2)cc1 (stereo not given)", "Class": "inactive"}
{"Compound": "COc1ccccc1N1C(=O)CSC1c1cc(OC)c(OC)c(OC)c1 (stereo not given)", "Class": "inactive"}
{"Compound": "CCCN1CN(C(C(=O)N[C@@H]2C(=O)N3C2SC(C)(C)C3C(=O)O)c2ccccc2)CSC1=S (stereo not given in full)", "Class": "inactive"}
{"Compound": "O=C1C2C(c3ccccc3)NC(c3ccccc3)C1C(c1ccccc1)NC2c1ccccc1 (stereo not given)", "Class": "inactive"}
{"Compound": "CCCCCCCC(=O)N[C@H](C(=O)N[C@H](C(=O)N(C)[C@H](C(=O)N1CCC[C@H]1C(=O)N(C)[C@H](C)C(=O)NCc1ccc(OC)cc1OC)C(C)C)C(C)C)C(C)C (Octanoyl-VV[NMeV]P[dNMeA]-X28)", "Class": "inactive"}
{"Compound": "Cc1ccc(NC(=O)CCc2nnc(N)o2)cc1", "Class": "inactive"}
{"Compound": "C=C1C(=O)O[C@H]2[C@H]1[C@H](OC(=O)/C(C)=C\\C)C[C@]1(CO1)[C@@H]1[C@H](OC(C)=O)C=C(C)[C@]21O [EUPAROTIN ACETATE]", "Class": "inactive"}
{"Compound": "COC(=O)C(NC(=O)c1ccccc1)C(c1ccc(Cl)cc1)P(=O)(OC)OC (stereo not given)", "Class": "inactive"}
{"Compound": "O=C(CCc1ccc(O)c(O)c1)NCCc1cc(O)cc(O)c1", "Class": "inactive"}
{"Compound": "COC(=O)C(=O)C(C#N)c1cccc(Cl)c1 (stereo not given)", "Class": "inactive"}
{"Compound": "C=C1C[C@@H]2O[C@H]3[C@H]4[C@@H](C[C@@H](C)[C@@H](OC(C)=O)[C@H]42)[C@@H](C)CO[C@@]3(C)[C@H](OC(=O)CCCCCCC)CC1=O", "Class": "inactive"}
{"Compound": "CCOC(=O)Cn1nc2ccc(Nc3nc4ccccc4nc3C(=O)OCC)cc2n1", "Class": "inactive"}
{"Compound": "COc1cc(/C=C/C(=O)CC(=O)/C=C/c2cc(C)c(O)c(OC)c2)cc(C)c1O", "Class": "inactive"}
{"Compound": "COC(=O)Nc1nc2cc(NC(=O)c3ccc(I)cc3)ccc2[nH]1", "Class": "inactive"}

---

# Tested on: MDA-N
# Test name: NCI tumour cell line growth inhibition, 48 h
The source made the active and inactive calls. Cut-off read from the data, not from the text of the source: active = GI50 up to about 1.1 µM and inactive = higher.
Possible outcomes: y (active), n (inactive)

{"Molecule": "O=C1C(CO)=C[C@@H](O)[C@H]2O[C@@H]12", "Class": "n"}
{"Molecule": "O=S(=O)(/N=c1/[nH]c2ccccc2n1S(=O)(=O)c1ccccc1)c1ccccc1", "Class": "n"}
{"Molecule": "CN1CCN(c2ccc3[nH]c(-c4ccc5[nH]c(CCCc6ccc(N(CCCl)CCCl)cc6)nc5c4)nc3c2)CC1", "Class": "n"}
{"Molecule": "O=C1OC2C(O)COC2(O)C1(O)C(C[N+](=O)[O-])c1ccc(Cl)cc1 (stereo not given)", "Class": "n"}
{"Molecule": "Cc1ccc2c(O)cc(-c3cccc(Cl)c3)nc2n1", "Class": "y"}
